The entries below come with measured pIC50 values attached.
biological target: human adenosine A2b receptor (Homo sapiens (Human), UniProt P29275); assay: Cellular in vitro reporter gene test for A2b receptor activity (CHO-K1, CRE-luciferase, NECA stimulation); format: cell-based; settings: recombinant CHO-K1 cell line, CRE-luciferase reporter, antagonism of EC50 concentration of NECA; in some cases means of several determinations, rounded to two significant figures; read-out: A2b receptor IC50
Sequence (P29275 whole entry): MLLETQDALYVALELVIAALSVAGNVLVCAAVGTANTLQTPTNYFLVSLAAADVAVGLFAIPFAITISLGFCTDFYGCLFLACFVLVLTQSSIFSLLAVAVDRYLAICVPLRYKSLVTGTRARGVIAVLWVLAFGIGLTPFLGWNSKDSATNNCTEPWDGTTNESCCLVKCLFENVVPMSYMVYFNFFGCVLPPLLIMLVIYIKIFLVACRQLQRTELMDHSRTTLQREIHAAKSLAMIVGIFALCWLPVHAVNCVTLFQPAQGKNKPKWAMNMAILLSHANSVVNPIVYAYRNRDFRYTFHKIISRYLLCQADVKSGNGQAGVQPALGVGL
pIC50: −log10 of the molar value.
Experimental readout: pIC50

Compound	Target or system	Recorded result
Cc1c(CN2CCNC2=O)sc2c1c(=O)n(CC(C)C)c(=O)n2CCC(F)(F)F	human adenosine A2b receptor (Homo sapiens (Human), UniProt P29275)	8.64
Cc1c(CN2CCNC(=O)C2=O)sc2c1c(=O)n(C(C)C)c(=O)n2CC1CCCO1 (single isomer, unassigned) [Example 482]	human adenosine A2b receptor (Homo sapiens (Human), UniProt P29275)	6.39
Cc1c(CN2CCNC2=O)sc2c1c(=O)n(CC(C)(C)C)c(=O)n2CC1CCCO1 (racemic) [Example 406]	human adenosine A2b receptor (Homo sapiens (Human), UniProt P29275)	7.54

---

target: human adenosine A2b receptor (Homo sapiens (Human), UniProt P29275); assay: Cellular in vitro reporter gene test for A2b receptor activity (CHO-K1, CRE-luciferase, NECA stimulation); assay type: cell-based; conditions: recombinant CHO-K1 cell line, CRE-luciferase reporter, antagonism of EC50 concentration of NECA; in some cases means of several determinations, rounded to two significant figures; read-out: A2b receptor IC50
pIC50: −log10 of the molar value.
Think of 8 as a floor: if pIC50 stands on it or above, it is 1; beneath it, 0.

Compound	Assigned class
CCn1c(=O)c2c(C)c(CN3CCNC3=S)sc2n(CCOC2CCCC2)c1=O	0
C=CCn1cnn(Cc2sc3c(c2C)c(=O)n(CC)c(=O)n3CCC(F)(F)F)c1=O	0
COCCn1c(=O)n(CC(F)(F)F)c(=O)c2c(C)c(CN3CCNC(=O)C3=O)sc21	0
Cc1c(CN2CCNC(=O)C2=O)sc2c1c(=O)n(CC(C)(C)C)c(=O)n2CCCF	0
Cc1c(CN2CCNC2=NC#N)sc2c1c(=O)n(CC(F)(F)F)c(=O)n2CC1CCCO1 (racemic) [Example 269]	0
CCn1c(=O)c2c(C)c(CN3CCNC3=O)sc2n(CC2CCOC2)c1=O (single isomer, unassigned; enantiomer 2) [Example 75]	0
CCn1c(=O)c2c(C)c(CN3CCN(C(C)=O)C3=O)sc2n(CCOC)c1=O	0
COCCn1c(=O)n(CCc2ccccc2)c(=O)c2c(C)c(CN3CCOC3=O)sc21	1
Cc1c(Cn2nc[nH]c2=O)sc2c1c(=O)n(CC(F)(F)F)c(=O)n2CCC(F)(F)F	0
CCn1c(=O)c2c(C)c(CN3CCOC3=O)sc2n(CCC(F)(F)F)c1=O	1
Cc1c(Cn2nc[nH]c2=O)sc2c1c(=O)n(CC(F)(F)F)c(=O)n2CC1CCCO1 (single isomer, unassigned) [Example 436]	0
CCOCCn1c(=O)c2c(C)c(CN3CCNC3=S)sc2n(CCCF)c1=O	0
CCn1c(=O)c2c(C)c(CN3CCNC3=O)sc2n(CC(C)OC)c1=O (single isomer, unassigned; enantiomer 2) [Example 64]	0
COCCn1c(=O)c2c(C)c(CN3CCNC3=NC(=O)OC)sc2n(CC2CCCO2)c1=O (racemic) [Example 390]	0
CCn1c(=O)c2c(C(F)(F)F)c(CN3CCCS3(=O)=O)sc2n(CCC(F)(F)F)c1=O	1
Cc1c(CN2CCNC2=O)sc2c1c(=O)n(C(C)C)c(=O)n2CC1CCO1 (single isomer, unassigned) [Example 185]	0
CCn1c(=O)c2c(C)c(CN3CCN(C)C3=O)sc2n(CCC(F)(F)F)c1=O	1

---

pIC50: recorded values
biological target: human adenosine A2b receptor (Homo sapiens (Human), UniProt P29275); experiment: Cellular in vitro reporter gene test for A2b receptor activity (CHO-K1, CRE-luciferase, NECA stimulation); assay type: cell-based; conditions: recombinant CHO-K1 cell line, CRE-luciferase reporter, antagonism of EC50 concentration of NECA; in some cases means of several determinations, rounded to two significant figures; read-out: A2b receptor IC50
pIC50: −log10 of the molar value.

Compound	pIC50
Cc1c(CN2CCNC2=NC#N)sc2c1c(=O)n(CC(C)(C)C)c(=O)n2CC1CCCO1 (single isomer, unassigned) [Example 447]	8.01
CCn1c(=O)c2c(C)c(CN3CCNC3=NC#N)sc2n(CC2CCO2)c1=O (racemic) [Example 256]	7.96
Cc1c(CN2CCNC2=NC#N)sc2c1c(=O)n(CC(F)(F)F)c(=O)n2CC1CCO1 (single isomer, unassigned) [Example 450]	7.85
COC(=O)N=C1NCCN1Cc1sc2c(c1C)c(=O)n(C(C)C)c(=O)n2CC1CCCO1 (racemic) [Example 380]	7.92

---

Listed here: items and their measured pIC50.
target: human adenosine A2b receptor (Homo sapiens (Human), UniProt P29275); experiment: Cellular in vitro reporter gene test for A2b receptor activity (CHO-K1, CRE-luciferase, NECA stimulation); assay type: cell-based; settings: recombinant CHO-K1 cell line, CRE-luciferase reporter, antagonism of EC50 concentration of NECA; in some cases means of several determinations, rounded to two significant figures; read-out: A2b receptor IC50
pIC50: −log10 of the molar value.
Experimental readout: pIC50

Compound	Recorded result
COCCn1c(=O)n(C(C)C(F)(F)F)c(=O)c2c(C)c(CN3CCNC3=NC(=O)OC)sc21 (single isomer, unassigned) [Example 514]	7.49
COC(=O)N=C1NCCN1Cc1sc2c(c1C)c(=O)n(CC(F)(F)F)c(=O)n2CC1CCO1 (racemic) [Example 383]	7.82
COCCn1c(=O)c2c(C)c(Cn3cc[nH]c3=O)sc2n(CC2CCCO2)c1=O (racemic) [Example 346]	7.43
CCn1c(=O)c2c(C)c(Cn3[nH]ccc3=O)sc2n(CCC(F)(F)F)c1=O	8.25
COCCn1c(=O)c2c(C)c(CN3CCNC3=O)sc2n(CCCF)c1=O	7.92
CCn1c(=O)c2c(C)c(CN3CCNC3=O)sc2n(CC2CCC2)c1=O	8.85
CCn1c(=O)c2c(C)c(CN3CCNC(=O)C3=O)sc2n(CCCOC)c1=O	7.03

---

target: human adenosine A2b receptor (Homo sapiens (Human), UniProt P29275); assay: Cellular in vitro reporter gene test for A2b receptor activity (CHO-K1, CRE-luciferase, NECA stimulation); assay type: cell-based; conditions: recombinant CHO-K1 cell line, CRE-luciferase reporter, antagonism of EC50 concentration of NECA; in some cases means of several determinations, rounded to two significant figures; read-out: A2b receptor IC50
pIC50: −log10 of the molar value.
Entries and their pIC50
Experimental readout: pIC50

Compound	Recorded result
Cc1c(CN2CCNC2=NC#N)sc2c1c(=O)n(C(C)C)c(=O)n2CC1CCCO1 (single isomer, unassigned) [Example 356]	8.29
Cc1c(Cn2[nH]ccc2=O)sc2c1c(=O)n(C(C)C)c(=O)n2CC1CCCO1 (single isomer, unassigned) [Example 135]	7.34
Cc1c(CN2CCNC2=O)sc2c1c(=O)n(C(C)C(F)(F)F)c(=O)n2CCC(F)(F)F (centres unmarked)	7.85
C=CCn1c(=O)c2c(C)c(CN3CCNC3=O)sc2n(CCOC)c1=O	7.74
Cc1c(Cn2nc[nH]c2=O)sc2c1c(=O)n(CC(C)(C)C)c(=O)n2CCC(F)(F)F	7.43
COCCn1c(=O)c2c(C)c(CN3CCNC3=NC(=O)OC)sc2n(CC2CCO2)c1=O (single isomer, unassigned) [Example 388]	7.48
Cc1c(CN2CCNC2=O)sc2c1c(=O)n(C(C)C)c(=O)n2CC1CCCO1 (single isomer, unassigned) [Example 188]	7.40
CCn1c(=O)c2c(C)c(CN3CCNC3=S)sc2n(CC2CCCCO2)c1=O (racemic) [Example 36]	7.42

---

target: human adenosine A2b receptor (Homo sapiens (Human), UniProt P29275); test: Cellular in vitro reporter gene test for A2b receptor activity (CHO-K1, CRE-luciferase, NECA stimulation); type: cell-based; conditions: recombinant CHO-K1 cell line, CRE-luciferase reporter, antagonism of EC50 concentration of NECA; in some cases means of several determinations, rounded to two significant figures; read-out: A2b receptor IC50
pIC50: −log10 of the molar value.

Compound	Target or system	pIC50
COCCn1c(=O)n(CCc2ccccc2)c(=O)c2c(C)c(CN3CCC3=O)sc21	human adenosine A2b receptor (Homo sapiens (Human), UniProt P29275)	8.01
COC(C)Cn1c(=O)c2c(C)c(CN3CCNC3=NC#N)sc2n(CCC(F)(F)F)c1=O (racemic) [Example 454]	human adenosine A2b receptor (Homo sapiens (Human), UniProt P29275)	8.21
COCCn1c(=O)n(CC(C)(C)OC)c(=O)c2c(C)c(CN3CCNC3=S)sc21	human adenosine A2b receptor (Homo sapiens (Human), UniProt P29275)	8.14
CCn1c(=O)c2c(C)c(CN3CCNC3=NC#N)sc2n(CC2CCCO2)c1=O (racemic) [Example 259]	human adenosine A2b receptor (Homo sapiens (Human), UniProt P29275)	8.01
COCCn1c(=O)c2c(C)c(CN3CCNC3=NC#N)sc2n(CCC(F)(F)F)c1=O	human adenosine A2b receptor (Homo sapiens (Human), UniProt P29275)	8.03
